# Tested on: NCI-H596
# Test name: relative viability (nuclei count vs DMSO), 5 days (fraction); higher = more cells survive
# Condition label: first compound 0.04 µM
Below: a set of entries, each annotated with reported relative viability.
Measured parameter: relative viability

INSERT INTO assay_data (compound, result_number) VALUES
  ('Cc1sc2c(c1C)C(c1ccc(Cl)cc1)=N[C@@H](CC(=O)OC(C)(C)C)c1nnc(C)n1-2 [JQ1] + Nc1ncn([C@H]2C[C@H](O)[C@@H](CO)O2)c(=O)n1 [Decitabine] (partner 2 µM)', 1.04),
  ('Cc1sc2c(c1C)C(c1ccc(Cl)cc1)=N[C@@H](CC(=O)OC(C)(C)C)c1nnc(C)n1-2 [JQ1] + CS(=O)(=O)N1CCN(Cc2cc3nc(-c4cccc5[nH]ncc45)nc(N4CCOCC4)c3s2)CC1 [Pictilisib] (partner 1 µM)', 0.412),
  ('Cc1sc2c(c1C)C(c1ccc(Cl)cc1)=N[C@@H](CC(=O)OC(C)(C)C)c1nnc(C)n1-2 [JQ1] + O=C(c1cc(Cc2n[nH]c(=O)c3ccccc23)ccc1F)N1CCN(C(=O)C2CC2)CC1 [Olaparib] (partner 8 µM)', 0.618),
  ('Cc1sc2c(c1C)C(c1ccc(Cl)cc1)=N[C@@H](CC(=O)OC(C)(C)C)c1nnc(C)n1-2 [JQ1] + Cc1nc(Nc2ncc(C(=O)Nc3c(C)cccc3Cl)s2)cc(N2CCN(CCO)CC2)n1 [Dasatinib] (partner 0.075 µM)', 0.671);

The measured values listed here are drawn from the supplement of paper PMC10307832.
